tested on: REC-1; assay: Cell viability assay (CellTiter Glo), lymphoma cell line REC-1; assay type: cell-based; settings: Homo sapiens, Rec1, 96 hours
pIC50: −log10 of the molar value.
Property name: pIC50

Here is how some compounds turned out for pIC50.
C[C@H]1Cc2c([nH]c3ccccc23)[C@H](c2ccc(C3CCCC3)cc2)N1C(=O)CCl    6.97
C[C@H]1Cc2c([nH]c3ccccc23)[C@H](c2ccc(C3CCOCC3)cc2)N1C(=O)CCl    6.85

[P] COC(=O)[C@H]1Cc2c([nH]c3ccccc23)[C@H](c2ccc(N[C@]34CC5C[C@H](C[C@H](C5)C3)C4)cc2)N1C(=O)CCl
[Q] C[C@H]1Cc2c([nH]c3ccccc23)[C@H](c2ccc(N3CCOCC3)cc2)N1C(=O)CCl
[R] COC(=O)c1ccc([C@@H]2c3[nH]c4ccc(F)cc4c3C[C@H](C(=O)OC)N2C(=O)CCl)cc1
Prompt: Order the records by pIC50, with each subsequent value no larger than the one before. Your task in answering is to list the labels in the requested order.
Completion: P, R, Q

[A] COC(=O)c1ccc([C@H]2c3[nH]c4ccc(OC)cc4c3C[C@H](C)N2C(=O)CCl)cc1
[B] COC(=O)c1ccc([C@@H]2c3[nH]c4ccc(Cl)cc4c3C[C@H](C(=O)OC)N2C(=O)CCl)cc1
Prompt: Looking at A and B , which one comes out lower in pIC50 terms? Refer to your chosen entry by its label in the reply.
Completion: A
